Give measured optical density, ypt1-ts, 12.5 for each item. Keep answers brief.
System: pdr5 ypt1^ts cells
experiment: microbe, parasite or virus in culture
Type: cell-based, yeast
test settings: Table 2; 12.5 μM compound; 37° C.; background (0 μM) 0.058
Quick one: just the number, no unit, thanks!

Which optical density, ypt1-ts, 12.5 is reported with pdr5 ypt1^ts cells for this entry: CCOc1ccc(C(=O)c2ccc(O)c(O)c2O)cc1 [2,3,4-TRIHYDROXY-4'- ETHOX[…]] ?
0.169

# get_value(readout= optical density, ypt1-ts, 12.5, system= pdr5 ypt1^ts cells) for O=C1c2ccccc2-c2cccc3cccc1c23 [BENZANTHRONE]
0.547

Kindly state the measured optical density, ypt1-ts, 12.5 obtained for CCCCC1C(=O)N(c2ccccc2)N(c2ccccc2)C1=O [PHENYLBUTAZONE, reference compound] with pdr5 ypt1^ts cells.
0.227

// map COc1ccc2c(c1OC)OC[C@@H](c1ccc(OC)c(OC)c1OC)C2 [DUARTIN, DIMETHYL ETHER] to recorded optical density, ypt1-ts, 12.5 (system: pdr5 ypt1^ts cells)
0.287

Request: optical density, ypt1-ts, 12.5, test system pdr5 ypt1^ts cells, entry C=C1C(=O)OC2CC1C(OC(C)=O)C/C(C)=C/CC/C(C)=C/CC[C@]2(C)O (stereo partly drawn) [CRASSIN ACETATE]
0.324

Under pdr5 ypt1^ts cells: optical density, ypt1-ts, 12.5 value of c1ccc2c(Cc3c[nH]c4ccccc34)c[nH]c2c1 [3,3'- DIINDOLYLMETHANE] ?
0.263

Item CCOc1cccc(C(=O)c2ccc(O)c(O)c2O)c1 with pdr5 ypt1^ts cells - optical density, ypt1-ts, 12.5?
0.185

Request body: readout optical density, ypt1-ts, 12.5, system pdr5 ypt1^ts cells, query CC(=O)OCC[N+](C)(C)C.[Cl-] [ACETYLCHOLINE, reference compound] . Return the value.
0.27

Return optical density, ypt1-ts, 12.5 measured with pdr5 ypt1^ts cells given this molecule: CC(C)=CCOc1cc2oc(=O)ccc2cc1O [PRENYLETIN]
0.121

---

Tested on: pdr5 ypt1^ts cells
experiment: microbe, parasite or virus in culture
Format: cell-based, yeast
test settings: Table 3; 50 uM compound; 37° C.; background (0 uM) 0.077
Exam item: assign 1 (yes) to entries whose optical density, 50 uM is below 0.3 and 0 (no) to entries at or above 0.3. Note that a value of exactly 0.3 receives 0 (no).

API: query returns whether the compound falls strictly under 0.3 in optical density, 50 uM. Query: CC1(C)C(=O)C=C[C@]2(C)C3CC[C@@]4(C)[C@H](c5ccoc5)C[C@H]5O[C@]54C3[C@H](O)CC12 (stereo partly shown)
0 (no)

Is the reported optical density, 50 uM for CC(=O)[C@H]1CCC2C3C[C@H](C)C4=CC(=O)CC[C@]4(C)C3[C@@H](O)C[C@@]21C (stereo partly shown) [MEDRY- SONE, reference compound] strictly below 0.3?
1 (yes)

Does the reported optical density, 50 uM of the following compound sit strictly below 0.3? CC1=C2C(=CO[C@H](C)[C@H]2C)C(=O)C(C(=O)O)=C1O
0 (no)

Regarding C[C@]12CC[C@@H](O)C[C@H]1CCc1ccccc12 , kindly confirm whether its optical density, 50 uM is beneath 0.3.
0 (no)

Does this compound meet the criterion optical density, 50 uM < 0.3? CC1(C)C(=O)C=C[C@@]2(C)C1CC(=O)[C@@]1(C)C3=CC(=O)O[C@@H](c4ccoc4)[C@]3(C)CCC12 (stereo partly shown)
0 (no)

Does COc1c2occc2cc2ccc(=O)oc12 [METHOX- SALEN, reference compound] have optical density, 50 uM strictly under 0.3?
0 (no)

Does the reported optical density, 50 uM of the following compound sit strictly below 0.3? C=C1C2CC[C@@]3(C)[C@H](c4ccoc4)OC(=O)C[C@]13O[C@H]1CC(=O)C(C)(C)[C@H](C(O)C(=O)OC)[C@@]21C (stereo partly shown) [6-HYDROXY- […] METHYL ESTER]
0 (no)

Say whether its optical density, 50 uM is strictly beneath 0.3. Entry: CC(C)c1ccc2c(c1)CCC1C(C)(C(N)=O)CCCC21C (stereo not shown) [DEHYDRO- ABIETAMIDE]
1 (yes)

Please indicate whether the reported optical density, 50 uM of COc1ccc(C(=O)c2ccccc2O)c(O)c1 [DIOXY- BENZONE, reference compound] is strictly below 0.3.
0 (no)

Report whether reported optical density, 50 uM is lower than 0.3 (strictly) for CC(CCC(=O)O)[C@H]1CCC2C3C(CC[C@@]21C)[C@@]1(C)CC[C@@H](O)C[C@H]1C[C@@H]3O (stereo partly shown) [URSODIOL, reference compound]
0 (no)

Answer whether the compound COc1ccccc1-c1cc(=O)c2cccc(OC)c2o1 has optical density, 50 uM strictly less than 0.3
0 (no)

Quick check: does COc1ccccc1-c1cc(=O)c2c(OC)cccc2o1 have optical density, 50 uM under 0.3?
0 (no)

Given the entry COC(=O)CCCOc1ccc(Cl)cc1Cl , would its reported optical density, 50 uM be below 0.3?
1 (yes)

Hi there! Is optical density, 50 uM for CC1(C)C(=O)C=C[C@@]2(C)C1CC(=O)[C@]1(C)C2CC[C@@]2(C)[C@H](c3ccoc3)OC(=O)[C@H]3O[C@]321 (stereo partly shown) below 0.3, do you know?
0 (no)

Say whether its optical density, 50 uM is strictly beneath 0.3. Entry: C#CCCCCCCCCCCCC(=O)CC(O)COC(C)=O (stereo not shown) [AVO- CADYNONE ACETATE]
1 (yes)

Lab note: confirm whether the reported optical density, 50 uM for this compound is below 0.3, equality not counting. compound: C#CCCCCCCCCCCCC(O)CC(O)COC(C)=O (stereo not shown) [AVOCADYNE ACETATE]
1 (yes)

Here's an entry: O=c1c2ccccc2oc2ccc(O)cc12 [2-HYDROXY- XANTHONE] . Is its optical density, 50 uM below 0.3?
0 (no)

Just wondering, is optical density, 50 uM of CC(=O)O[C@@H]1CC2C(C)(C)C(=O)C=C[C@]2(C)C2CC[C@@]3(C)[C@H](c4ccoc4)OC(=O)[C@H]4O[C@]43[C@@]21C (stereo partly shown) below 0.3?
1 (yes)

Lab log: compare recorded optical density, 50 uM with 0.3; is it strictly lower for CC(C)C1=CC2=CC[C@H]3[C@](C)(CO)CCC[C@]3(C)C2CC1 (stereo partly shown) ?
1 (yes)

Confirm or reject: optical density, 50 uM of O=C1c2c(O)ccc(O)c2C(=O)c2c(NCCNCCO)ccc(NCCNCCO)c21 [MITO- XANTHRONE HYDRO- CHLORIDE, reference compound] lies strictly below 0.3
0 (no)

Is 0.3 strictly greater than the compound's reported optical density, 50 uM? compound: COC(=O)C[C@H]1C(C)(C)C(=O)[C@@H]2CC3C4=CC(=O)O[C@@H](c5ccoc5)[C@]4(C)CCC3[C@]1(C)C2=O (stereo partly shown)
0 (no)

Given the entry CC(=O)O[C@]1(C(C)=O)CC[C@H]2[C@@H]3C=C(C)C4=CC(=O)CC[C@]4(C)[C@H]3CC[C@@]21C [MEGESTROL ACETATE, reference compound] , would its reported optical density, 50 uM be below 0.3?
1 (yes)

optical density, 50 uM strictly < 0.3 for this compound? C#CCCCCCCCCCCCC(O)CC(O)CO (stereo not shown)
1 (yes)

Dear reviewer, please state whether C/C=C(/C(=C/C)c1ccc(O)cc1)c1ccc(O)cc1 [DIENESTROL, reference compound] has optical density, 50 uM strictly beneath 0.3.
1 (yes)
